# system under test: Potassium voltage-gated channel subfamily KQT member 2 (Rattus norvegicus)
# method: KCNQ2 potentiation in CHO cells – cell-based, FluxOR thallium flux, counter-screen for hERG block protector project, confirmation (AID 1942);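 note: normalized value minus buffer-control mean plus three SD of buffer wells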
# protocol conditions: FluxOR thallium flux fluorescence, at 10 µM, active compounds read high
About 580 (24%) of roughly 2,400 compounds were called active. A selection follows.
measurement label: activity change, less the hit threshold (%)
Give the value in % but do not write % after it.

Q. Enter activity change, less the hit threshold (test system Potassium voltage-gated channel subfamily KQT member 2 (Rattus norvegicus)) for "Cc1ccccc1NC1=NC(=S)N(c2ccccc2)C12CCCCC2"
A. 11.4

Q. Enter activity change, less the hit threshold (test system Potassium voltage-gated channel subfamily KQT member 2 (Rattus norvegicus)) for "O=C(NC(=S)Nc1ccccn1)c1cc(-c2ccccc2)nc2ccccc12"
A. -12

Q. Enter activity change, less the hit threshold (test system Potassium voltage-gated channel subfamily KQT member 2 (Rattus norvegicus)) for CC1(C)CC2(CCO1)C(Nc1ccccc1)=NC(=S)N2CC(N)=O (stereo not given)
A. -15.8

Q. Enter activity change, less the hit threshold (test system Potassium voltage-gated channel subfamily KQT member 2 (Rattus norvegicus)) for "COC(=O)c1ccc(-n2c(C)nc(=O)c(-c3ccccc3)c2C)cc1"
A. -13.8

Q. Enter activity change, less the hit threshold (test system Potassium voltage-gated channel subfamily KQT member 2 (Rattus norvegicus)) for "O=C(NC(=S)Nc1ccccc1)c1cc(-c2ccccc2)nc2ccccc12"
A. -5.5

Q. Enter activity change, less the hit threshold (test system Potassium voltage-gated channel subfamily KQT member 2 (Rattus norvegicus)) for "O=[N+]([O-])c1cccc(/C=C/c2nc(C=Nc3ccccc3)c(O)o2)c1"
A. -18.2

Q. Enter activity change, less the hit threshold (test system Potassium voltage-gated channel subfamily KQT member 2 (Rattus norvegicus)) for "Cc1cccc(NC(=S)NC(=O)c2cc(-c3ccccc3)nc3ccccc23)c1"
A. -14.7

Q. Enter activity change, less the hit threshold (test system Potassium voltage-gated channel subfamily KQT member 2 (Rattus norvegicus)) for "Cc1ccccc1NC(=S)NC(=O)c1cc(-c2ccccc2)nc2ccccc12"
A. 2

Q. Enter activity change, less the hit threshold (test system Potassium voltage-gated channel subfamily KQT member 2 (Rattus norvegicus)) for "CC(C)(C)NS(=O)(=O)c1ccc(NC(=O)c2cc(-c3ccccc3)nc3ccccc23)cc1"
A. -22

Q. Enter activity change, less the hit threshold (test system Potassium voltage-gated channel subfamily KQT member 2 (Rattus norvegicus)) for "COC(=O)c1ccc(NC(=S)NC(=O)c2cc(-c3ccccc3)nc3ccccc23)cc1"
A. 1.1

* * *

# system under test: Potassium voltage-gated channel subfamily KQT member 2 (Rattus norvegicus)
# method: KCNQ2 potentiation in CHO cells – cell-based, FluxOR thallium flux, counter-screen for hERG block protector project, confirmation (AID 1942);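 note: normalized value minus buffer-control mean plus three SD of buffer wells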
# protocol conditions: FluxOR thallium flux fluorescence, at 10 µM, active compounds read high
Out of some 2,400 compounds screened, about 580 (24%) were called active. The list is a sample of the results.
Kindly state activity change, less the hit threshold for each of the entries shown.
Give the value in % but do not write % after it.

Q. Please list activity change, less the hit threshold recorded for the molecule "Cc1ccc(NC(=O)c2ccc3c(c2)CCN3S(C)(=O)=O)c(C)c1"
A. -23.2

Q. Please list activity change, less the hit threshold recorded for the molecule "CN(C)CCOC(=O)C1(c2ccccc2)CCCC1"
A. -12.9

Q. Please list activity change, less the hit threshold recorded for the molecule "CC1=Nc2ccc(C)cc2/C1=C/c1c(N)n2c(S(=O)(=O)C(C)C)nsc2nc1=O"
A. -27

Q. Please list activity change, less the hit threshold recorded for the molecule "Cc1c(C(=O)NC(=S)NCc2cccnc2)oc2ccccc12"
A. -18.2

Q. Please list activity change, less the hit threshold recorded for the molecule "CCOC(=O)Cc1csc(NC(=S)NC(=O)c2ccccc2Br)n1"
A. 9.2

Q. Please list activity change, less the hit threshold recorded for the molecule "Cc1ccc(NC(=S)NC(=O)c2ccc(Br)o2)c(C)c1"
A. 8.1

Q. Please list activity change, less the hit threshold recorded for the molecule "CCOC(=O)Cc1csc(NC(=S)NC(=O)c2ccc(Cl)cc2)n1"
A. -7.1

Q. Please list activity change, less the hit threshold recorded for the molecule "O=C(NC(=S)Nc1ccccc1)c1ccc(Br)o1"
A. 3.3

Q. Please list activity change, less the hit threshold recorded for the molecule "CC1CCN(S(=O)(=O)c2ccc3nc(N4CCN(c5ccccc5)CC4)ccc3c2)CC1"
A. -25.2

Q. Please list activity change, less the hit threshold recorded for the molecule "O=C(NC(=S)Nc1cccc(Cl)c1)c1cncc(Br)c1"
A. -16.1

Q. Please list activity change, less the hit threshold recorded for the molecule CCC1Nc2ncnc(N3CCOCC3)c2N(Cc2ccc(C)cc2)C1=O (centres undefined)
A. -18.9

Q. Please list activity change, less the hit threshold recorded for the molecule "Cc1ccc(C)c(NC(=S)NC(=O)c2cncc(Br)c2)c1"
A. -2.9

Q. Please list activity change, less the hit threshold recorded for the molecule "CCOC(=O)Cc1csc(NC(=S)NC(=O)c2ccc(C)cc2)n1"
A. -3.1

Q. Please list activity change, less the hit threshold recorded for the molecule "O=C(NC(=S)NNC(=O)c1cccs1)c1ccc(Br)o1"
A. -12.6

Q. Please list activity change, less the hit threshold recorded for the molecule "CCOC(=O)Cc1csc(NC(=S)NC(=O)c2ccccc2C)n1"
A. 3.3

Q. Please list activity change, less the hit threshold recorded for the molecule "COc1ccc(-c2csc(NC(=S)NC(=O)c3ccc4ccccc4c3)n2)cc1OC"
A. -11.9

Q. Please list activity change, less the hit threshold recorded for the molecule "CC(C)CCn1c(SCC(=O)NC2CC2)nc2cc(Cl)ccc2c1=O"
A. -8.5

Q. Please list activity change, less the hit threshold recorded for the molecule "O=C(NC(=S)Nc1ccccc1F)c1ccc(Br)o1"
A. 59.7

Q. Please list activity change, less the hit threshold recorded for the molecule "Cc1cc(Cl)c(S(=O)(=O)N2CCSCC2)cc1OCC(=O)NC1CCCCC1"
A. 57.4

Q. Please list activity change, less the hit threshold recorded for the molecule "O=C1c2ccccc2C(=O)N1Cc1nc2ccccc2c(=O)n1CCCn1ccnc1"
A. -20.6

Q. Please list activity change, less the hit threshold recorded for the molecule "CCOC(=O)Cc1csc(NC(=S)NC(=O)C(C)(C)C)n1"
A. -1.3

Q. Please list activity change, less the hit threshold recorded for the molecule "Cc1cc(Cl)c(S(N)(=O)=O)cc1OCC(=O)NC1CCCCC1"
A. -7.9

Q. Please list activity change, less the hit threshold recorded for the molecule "Cc1ccccc1-c1nnn(CC(=O)NCc2ccc3c(c2)OCO3)n1"
A. -24.5

Q. Please list activity change, less the hit threshold recorded for the molecule "O=C(NC(=S)Nc1cccnc1)c1cc2ccccc2o1"
A. 10.1
